Attribution: patent US11084826B2

Measured melting point values are reported for all entries that follow.

Some entries whose results are on file:
1) CCc1cc(C(=O)N2CCCCCC2C)nc2cc(-c3ccc(-c4cncnc4)cc3)nn12 (stereo not shown) [Compound F3] = 185 °C
2) CCc1cc(C(=O)N2CCCCCC2C)nc2cc(-c3ccc(B(O)O)cc3F)nn12 (stereo not shown) [Compound G1] = 195 to 200 °C
3) CCc1cc(C(=O)N2CC[C@@H]3CCCC[C@@H]3[C@H]2C)nc2cc(-c3ccc(/C=C/C(=O)O)cc3F)nn12 (racemic) [Compound M50] = 184.15 °C

Lab note: next compound to report on.
# return recorded melting point for input CCc1cc(C(=O)N2CCCCCC2C)nc2cc(-c3ccc(NC(=O)C4(C)CC4)cc3F)nn12 (stereo not shown) [Compound E8]
225 to 230 °C
